The measured values listed here are drawn from ChEMBL document CHEMBL1795328.

# System name: Mu-type opioid receptor (Cavia porcellus, UniProt P97266)
# Sequence (P97266 whole entry): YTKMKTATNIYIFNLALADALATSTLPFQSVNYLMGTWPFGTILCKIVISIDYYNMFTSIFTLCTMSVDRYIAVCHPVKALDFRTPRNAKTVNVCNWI
Assign pKi to each entry below.
On this scale, pKi is minus log10 of a concentration expressed in M (mol/L).

Asked: Look up and state reported pKi for `Oc1ccc2c3c1O[C@H]1[C@]4(CC[C@@]5(O)[C@@H](C2)N(CC2CC2)CC[C@]315)O[C@@H]1N2[C@H]4O[C@]3(CC[C@@]4(O)[C@H]5Cc6ccc(O)c7c6[C@@]4(CCN5CC4CC4)[C@H]3O7)[C@@H]2O[C@]12CC[C@@]1(O)[C@H]3Cc4ccc(O)c5c4[C@@]1(CCN3CC1CC1)[C@H]2O5`
Given back: 7.65

Asked: Look up and state reported pKi for `CN1CC[C@]23c4c5ccc(O)c4O[C@H]2[C@]2(CC[C@@]3(O)[C@H]1C5)O[C@@H]1N3[C@H]2O[C@]2(CC[C@@]4(O)[C@H]5Cc6ccc(O)c7c6[C@@]4(CCN5CC4CC4)[C@H]2O7)[C@@H]3O[C@]12CC[C@@]1(O)[C@H]3Cc4ccc(O)c5c4[C@@]1(CCN3C)[C@H]2O5`
Given back: 8.73
